Trimeric HA Binding RLU values, listed per item
target: recombinant homotrimeric HA, A/Indonesia/5/05 H5N1 (Influenza A virus A/Indonesia/5/05 (H5N1)); experiment: trimeric HA microarray, transfection set 5; settings: remark: other sources report otherwise
A bare number is not enough; add the unit after it.

Below: 2 binders and their reported Trimeric HA Binding RLU.
# Binder, Assay Endpoint, Experimental Value
data = [
    ("TCN-553 (5261_C18) (antibody, V domains shown) VH: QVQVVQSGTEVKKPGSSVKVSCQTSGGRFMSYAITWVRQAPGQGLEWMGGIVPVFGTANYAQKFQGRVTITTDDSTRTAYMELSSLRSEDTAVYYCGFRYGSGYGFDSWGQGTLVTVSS VL: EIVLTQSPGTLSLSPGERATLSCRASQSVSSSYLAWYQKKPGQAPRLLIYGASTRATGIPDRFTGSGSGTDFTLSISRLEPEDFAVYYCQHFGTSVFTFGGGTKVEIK", "Trimeric HA Binding RLU", "31200 RLU"),
    ("TCN-557 (5081_A04) (antibody, V domains shown) VH: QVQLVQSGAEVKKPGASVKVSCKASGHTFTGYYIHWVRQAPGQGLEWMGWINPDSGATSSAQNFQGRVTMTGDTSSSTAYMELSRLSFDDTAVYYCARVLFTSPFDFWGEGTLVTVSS VL: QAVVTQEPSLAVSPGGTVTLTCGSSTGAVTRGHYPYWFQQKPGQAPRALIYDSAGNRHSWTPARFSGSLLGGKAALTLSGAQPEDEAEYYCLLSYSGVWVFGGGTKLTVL", "Trimeric HA Binding RLU", "22200 RLU"),
]

Please turn your attention to the following entry.
The value of Trimeric HA Binding RLU measured for the binder TCN-504 (3251_K17) (antibody, V domains shown) VH: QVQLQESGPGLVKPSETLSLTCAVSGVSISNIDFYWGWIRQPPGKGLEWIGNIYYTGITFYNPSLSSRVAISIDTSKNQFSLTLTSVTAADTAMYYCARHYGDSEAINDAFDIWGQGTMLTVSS VL: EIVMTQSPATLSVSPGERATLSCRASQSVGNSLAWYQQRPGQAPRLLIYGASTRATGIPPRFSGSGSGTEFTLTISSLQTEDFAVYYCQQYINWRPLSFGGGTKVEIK turned out to be 18500 RLU
